Measured values drawn from patent US20160199438A1 for this set.

# Target or test system: T1, human glucagon-like peptide 1 receptor (human, UniProt P43220 24-463)
# T1 construct: whole, on cells; also called hGLP-1R; Human GLP-1R
# Measurement description: ratio of Ki on hGLP-1R to Ki on hGIP-R (reference), radioligand competition
Measured endpoint: Absolute ratio of hGLP-1R/hGIP-R
Just the number, please.

Looking for the measured Absolute ratio of hGLP-1R/hGIP-R of YXEGTFTSDYSIXLDKIAQKAXVQWLIAGGPSSGAPPPS (Aib at positions 2 and 13; K at position 20 conjugated at the epsilon-amino group with ([2-(2-Amino-ethoxy)-ethoxy]-acetyl)2-(γGlu)1-CO-(CH2)16-CO2H; 1-Nal at position 22; C-terminal primary amide, Synthetic acylated peptide, trifluoroacetate salt) [Example 6] , can you help?
8.3

Now give it for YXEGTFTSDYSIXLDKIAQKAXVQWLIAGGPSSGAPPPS (Aib at positions 2 and 13; K at position 20 conjugated at the epsilon-amino group with ([2-(2-Amino-ethoxy)-ethoxy]-acetyl)2-(γGlu)2-CO-(CH2)16-CO2H; 1-Nal at position 22; C-terminal primary amide, Synthetic acylated peptide, trifluoroacetate salt) [Example 7] too.
7.6

// next record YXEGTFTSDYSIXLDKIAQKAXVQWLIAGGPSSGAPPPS (Aib at positions 2 and 13; K at position 20 conjugated at the epsilon-amino group with ([2-(2-Amino-ethoxy)-ethoxy]-acetyl)2-(γGlu)1-CO-(CH2)18-CO2H; 1-Nal at position 22; C-terminal primary amide, Synthetic acylated peptide, trifluoroacetate salt) [Example 8]
4.5

What about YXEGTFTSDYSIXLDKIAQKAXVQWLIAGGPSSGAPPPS (Aib at positions 2 and 13; K at position 20 conjugated at the epsilon-amino group with ([2-(2-Amino-ethoxy)-ethoxy]-acetyl)2-(γGlu)2-CO-(CH2)18-CO2H; 1-Nal at position 22; C-terminal primary amide, Synthetic acylated peptide, trifluoroacetate salt) [Example 2] ?
5.4
